The origin of these recorded values is patent US20230089247A1.

molecular target: PCSK9 (Homo sapiens); assay: BODIPY-LDL uptake assay in HepG2 cells; format: cell-based; conditions: 10 μM test compound, 5 μg/ml PCSK9, BODIPY-LDL
Sequence (Q8NBP7 153-692): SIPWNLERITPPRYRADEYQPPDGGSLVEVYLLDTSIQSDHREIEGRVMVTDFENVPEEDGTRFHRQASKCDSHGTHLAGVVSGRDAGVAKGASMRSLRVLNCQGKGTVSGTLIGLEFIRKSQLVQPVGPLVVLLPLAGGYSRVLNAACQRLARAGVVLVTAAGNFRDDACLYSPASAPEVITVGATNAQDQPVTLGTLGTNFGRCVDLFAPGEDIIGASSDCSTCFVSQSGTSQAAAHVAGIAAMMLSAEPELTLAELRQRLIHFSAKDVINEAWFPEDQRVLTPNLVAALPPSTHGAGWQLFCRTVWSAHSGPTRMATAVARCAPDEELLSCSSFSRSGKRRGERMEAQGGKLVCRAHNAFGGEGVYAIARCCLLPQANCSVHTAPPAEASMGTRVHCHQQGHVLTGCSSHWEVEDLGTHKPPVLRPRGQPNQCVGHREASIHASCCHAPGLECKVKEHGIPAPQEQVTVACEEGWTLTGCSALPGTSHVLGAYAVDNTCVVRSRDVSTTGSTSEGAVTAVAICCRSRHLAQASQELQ
I'd appreciate it if you could supply % increase in LDL Uptake values for the items below.
Provide only the numeric value, understood in %.

Recorded % increase in LDL Uptake of `O=C(c1ccc(C2(O)COC2)cc1)N1CC=C(c2ccc(C(F)(F)F)cc2)CC1` , please.
115

// returns reported % increase in LDL Uptake for input `O=C(c1ccc(C2(O)COC2)cc1)N1CCC(c2ccc(OC(F)(F)F)cc2)CC1`
19

Find the recorded % increase in LDL Uptake belonging to `O=C(c1ccc(C2(O)COC2)cc1)N1CCC(c2ccc(C(F)(F)F)cc2)CC1` and report it.
135

I have this compound here, `COC1(c2ccc(C(=O)N3CCC(c4ccc(C(F)F)cc4)CC3)cc2)COC1` , and I need its recorded % increase in LDL Uptake.
2

Consider the compound shown here: `OC1(c2cc(N3CCOCC3)cc(N3CCC(c4ccc(C(F)(F)F)cc4)CC3)c2)COC1` What is its recorded % increase in LDL Uptake?
13

Using the record for `O=C(c1cccc(C2(O)COC2)c1)N1CC2=C(C1)CN(c1ccc(C(F)(F)F)cc1)C2` , report its % increase in LDL Uptake.
28

I'd like to know its % increase in LDL Uptake. The compound in question is `CCS(=O)(=O)CCOC1(c2ccc(C(=O)N3CCC(c4ccc(C(F)(F)F)cc4)CC3)cc2)COC1`
90

For the compound shown here, `O=C(c1ccc(C2(O)CS(=O)(=O)C2)cc1)N1CCC(c2ccc(C(F)(F)F)cc2)CC1` , give the reported % increase in LDL Uptake.
10
